- Test system: HL-1
- test.summary: protection of cardiomyocytes from stress damage, SAR follow-up, cell-based, panel, H9c2 and HL-1, H2O2, 2-deoxyglucose, ATP luminescence (AID 651642)
- run.conditions: H9c2/HL-1 cardiomyocyte 2-deoxyglucose damage, mean of runs, with 2-deoxyglucose
Activity calls are given as the source filed them.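 Rule for the calls: active = average half-effect concentration of 10 µM or less in every one of the four cell panels; inactive = the rest.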
Classes used: 1 for active, -1 for inactive

- compound: "COc1ccc2c(c1OC)C(=O)N1c3ccccc3C(=O)N(Cc3c(Cl)cccc3Cl)C21 (centres undefined)"
  class: -1
- compound: "CCOC(=O)c1cccc(NC(=O)CNC(=O)c2cc(-c3cc(OC)c(OC)c(OC)c3)nc3ccc(OC)cc23)c1"
  class: 1
- compound: "COc1ccc2c(c1OC)C(=O)N1c3ccccc3C(=O)N(Cc3ccncc3)C21 (centres undefined)"
  class: -1
- compound: "CCOC(=O)c1cccc(NC(=O)c2cc(-c3cc(OC)c(OC)c(OC)c3)nc3c(Cl)cccc23)c1"
  class: -1
- compound: "COc1cc(-c2cc(C(=O)NCC(=O)Nc3ccc(C(C)=O)cc3)c3ccccc3n2)cc(OC)c1OC"
  class: -1
- compound: "COc1ccc2c(c1OC)C(=O)N1c3ccccc3C(=O)N(Cc3ccccc3)C21 (centres undefined)"
  class: -1
- compound: "COc1ccc2c(c1OC)C(=O)N1c3ccccc3C(=O)N(Cc3cccc(Cl)c3Cl)C21 (centres undefined)"
  class: 1
- compound: "COc1cc(-c2cc(C(=O)Nc3cccc(C(C)=O)c3)c3cccc(Cl)c3n2)cc(OC)c1OC"
  class: -1
- compound: "COc1ccc2c(c1OC)C(=O)N1c3ccccc3C(=O)N(Cc3ccccn3)C21 (centres undefined)"
  class: -1
- compound: "COc1cc(-c2cc(C(=O)NCC(=O)Nc3cccc(C(C)=O)c3)c3cc(F)ccc3n2)cc(OC)c1OC"
  class: 1
- compound: "COc1cc(-c2cc(C(=O)NCC(=O)Nc3ccc(C(C)=O)cc3)c3cc(C)ccc3n2)cc(OC)c1OC"
  class: 1
- compound: "CCOC(=O)c1cccc(NC(=O)CNC(=O)c2cc(-c3cc(OC)c(OC)c(OC)c3)nc3ccc(Br)cc23)c1"
  class: 1
- compound: "COc1ccc2c(c1OC)C(=O)N1c3ccccc3C(=O)N(Cc3cccc(F)c3)C21 (centres undefined)"
  class: 1
- compound: "COC(=O)CNC(=O)c1cc(-c2cc(OC)c(OC)c(OC)c2)nc2ccccc12"
  class: -1
